Reference source: PubChem BioAssay (NCI)

Items are presented alongside their recorded log10 of TGI.
Test system: HOP-62 NSCLC
Experiment: NCI tumour cell line growth inhibition, 48 h
All values: log10 TGI [µM].

Guide cases for log10 of TGI, answers given:
smiles_data=C=CCc1ccc(O)c(-c2ccc(O)c(CC=C)c2)c1 assay_metric="log10 of TGI" quantitative_readout=1.60
smiles_data=Oc1cn(-c2ccc(Cl)cc2)nc1-c1n[nH]c(=S)n1-c1ccccc1 assay_metric="log10 of TGI" quantitative_readout=1.36
smiles_data=COc1ccc(-c2cc(/C=C/C(=O)c3ccc(OC)c(OC)c3)[nH]n2)cc1 assay_metric="log10 of TGI" quantitative_readout=0.79
smiles_data=NCCc1cc(O)c(O)cc1O assay_metric="log10 of TGI" quantitative_readout=1.65
smiles_data=O=c1nc(N2CCNCC2)oc2cc(Cl)oc(=O)c12 assay_metric="log10 of TGI" quantitative_readout=1.15

query: What reported log10 of TGI corresponds to CCOC(=O)c1c2c(n(Cc3ccccc3)c1C)C(=O)C(=O)c1ccccc1-2 on HOP-62 NSCLC?
result: -0.27

query: // same read-out, input: COc1cccc2nc3c(C(=O)NCCN(C)C)cccc3cc12
result: 0.85

query: Would you kindly repeat that for COc1ccc2c(c1)c[n+](C)c1c3cc(OC)c(OC)cc3ccc21 ?
result: 1.18

---

This listing pairs molecules with measured TGI.
Test system: SF-268 CNS
Experiment: NCI tumour cell line growth inhibition, 48 h

For orientation, consider the following solved cases.
molecule="CC(=O)OCC1OC(OC2CC3C(C)(C)C(O)CC[C@]3(C)C3CCC45CC4(CCC5[C@@H](C)CC(O)C(O)C(C)(C)O)[C@]23C)C(O)C(O)C1O (stereo partly drawn)" result="> 10 µM"
molecule="CCCC(=O)N1CCN(c2ccc3c(c2)OC(C)O3)CC1 (stereo not drawn)" result="> 100 µM"
molecule=COc1ccc(/C=C(\C(C)=O)C(=O)Nc2ccccc2)cc1 result="> 100 µM"
molecule=COC1(OC)CCCc2c1no[n+]2[O-] result="> 100 µM"
molecule=CN(C)CCNC(=O)c1cccc2ccc(-c3ccc(F)cc3)nc12 result="22.2 µM"

query: Consider the molecule shown here: Cc1nc2ccc(F)cc2c2c1CCN2c1ccc(Cl)cc1 What is its recorded TGI?
result: > 100 µM

query: Also CCN(CC)CCSc1c2ccccc2nc2c(OC)ccc(OC)c12 , if possible.
result: 26.1 µM

query: Another molecule: COC(=O)c1ccc2c(c1)/C(=C\c1cc(Br)c(O)c(Br)c1)C(=O)N2
result: > 25 µM

---

Tested on: TK-10 renal
Test: NCI tumour cell line growth inhibition, 48 h
ASSAY_METRIC: TGI

Answered cases to consult:
molecule=O=C(Nc1cc(C(F)(F)F)ccc1Cl)c1cccc(NC2=C(Cl)C(=O)N(Cc3ccccc3)C2=O)c1 result="> 100 µM"
molecule="Nc1ccn(C2OC(CO)C(O)C2O)c(=O)n1 (stereo unspecified)" result="> 500 µM"
molecule=CC(=O)N1CCC(=O)/C(=C/c2ccccc2)C1 result="> 100 µM"
molecule="COC1=C(Br)[C@H](O)[C@@]2(C=C1Br)CC(C(=O)NCCCOc1c(Br)cc(C(O)CNC(C)=O)cc1Br)=NO2 (stereo partly specified)" result="> 10 µM"
molecule="CC1CN=C(N(C(=O)Nc2ccc(Cl)c(Cl)c2)c2ccccc2)S1 (stereo unspecified)" result="> 100 µM"

query: For the molecule C[C@]12CCC(=O)C=C1CC[C@@H]1C2CC[C@]2(C)Nc3[nH]ncc3CC12 (stereo partly specified) , what TGI is on record?
result: > 100 µM

query: What do you have for COc1ccc(C[C@H]2COC(=O)[C@@H]2Cc2cccc(Br)c2)cc1OC ?
result: 82 µM

query: Next record, please: CN(C)CCSc1cc(-c2ccccc2)c2ccccc2n1
result: 19.4 µM

query: Again, but for FC(F)(F)c1ccc2c(c1)nc(-c1ccc(Cl)cc1)n2CC1CCCN2CCCCC12 (stereo unspecified)
result: 28.5 µM

query: # iterate: C=C1C(=O)OC2CC(C)C(C(O)CC(C)O)=CCC12 (stereo unspecified)
result: 23.3 µM

query: Then what about the molecule C=CCN1CCC23c4c5ccc(O)c4OC2C(=NN=C2CCC4(O)C6Cc7ccc(O)c8c7C4(CCN6CC=C)C2O8)CCC3(O)C1C5 (stereo unspecified) ?
result: 43.7 µM

query: Param item: O=C(O)c1ccc(C(=O)O)c2c(C(=O)O)ccc(C(=O)O)c12
result: > 100 µM

query: // query: COc1ccc(C(C#N)NNC(=O)Cc2ccccc2)cc1OC (stereo unspecified)
result: > 100 µM

query: Now try O=C(/C=C/C=C/c1ccccc1)c1ccccc1 .
result: 42.3 µM

query: Then Cc1ccc(NC(=O)CCc2nnc(N)o2)cc1 ?
result: > 100 µM

---

We begin with a simple list: items and their reported TGI.
Test system: NCI-H226 lung
Experiment: NCI tumour cell line growth inhibition, 48 h

Examples with answers:
compound=Nc1c(C(=O)c2ccccc2)cnn1-c1ccc(F)cc1 result="> 25 µM"
compound="CC1(C)OC[C@@H]([C@H](O)C2C=CC(=O)S2)O1 (stereo not given in full)" result="> 100 µM"
compound=NCC(=O)Nc1ccc(S(=O)(=O)O)c2cc(S(=O)(=O)O)cc(S(=O)(=O)O)c12 result="> 100 µM"
compound=O=C1C=C(NCCOCCO)C(=O)c2c(O)ccc(O)c21 result="> 100 µM"
compound="CC(C)OC(=O)[C@H](C)NP(=O)(OC[C@H]1O[C@@H](n2ccc(=O)[nH]c2=O)[C@](C)(F)[C@@H]1O)Oc1ccccc1 (stereo not given in full)" result="> 100 µM"
compound=COC(=O)c1ccc2c(c1)/C(=C\c1cc(Br)c(O)c(Br)c1)C(=O)N2 result="> 25 µM"
compound=COC(=O)C(C(=O)Cc1ccccc1[N+](=O)[O-])C(=O)OC result="> 100 µM"
compound="COc1cc2c(cc1OC)C1C[C@]3(CCN1CC2)C(=O)N(c1ccccc1)C(=O)N3C(C)=O (stereo not given in full)" result="> 200 µM"

query: # lookup: TGI of O=C(Cn1c(-c2ccccc2)cc2ccccc21)N1CCCC1
result: > 100 µM

query: And the next one, CN1C(=O)C2CCCC(=O)N2c2cccnc21 (stereo not given) ?
result: > 100 µM

query: Request: Cc1cc(/N=C/c2ccc(F)cc2)n(-c2ccccc2)n1
result: > 100 µM

query: And what about the compound Nc1ccn([C@H]2CO[C@@H](CO)[C@@H]2O)c(=O)n1 ?
result: > 100 µM

query: Request: CC(=O)NC1=N/C(=C\c2ccc(Cl)cc2)C(=O)N1/C=C1\C(=O)Oc2ccccc2C1=O
result: > 100 µM

query: Please give the result for O=C(O)c1ccc(C(=O)O)c2c(C(=O)O)ccc(C(=O)O)c12 too.
result: > 100 µM

query: Also, CCCCCCCN=C(N)c1ccc(N2CCN(c3ccc(C(N)=NCCCCCCC)cc3)CC2)cc1 please.
result: > 100 µM

---

The reader will find reported GI50 values listed item by item below.
System: ACHN renal
Assay: NCI tumour cell line growth inhibition, 48 h

query: What value of GI50 has been reported for the following compound? C#Cc1nc(Nc2cc(C)[nH]n2)c2ccccc2n1
result: 0.257 µM

query: How about this compound: CSc1ccccc1C#C/C=C\C#Cc1ccccc1N
result: 20.1 µM

query: Further, for O=[N+]([O-])c1ccc(CI)cc1 ?
result: 1.96 µM

---

Documented TGI across a set of compounds
System: CAKI-1 renal
Assay: NCI tumour cell line growth inhibition, 48 h

smiles_data=CCOC(=O)/C=C(\C(=O)OCC)n1ccc(=O)n(Cc2cn(CCCCOC(C)=O)nn2)c1=O result="8.57 µM"
smiles_data=COc1ccc(Cn2c(N)c(S(=O)(=O)c3ccc(Cl)cc3)c3nc(C#N)c(C#N)nc32)cc1 result="> 50 µM"
smiles_data=O=C(/C=C/C=C/c1ccccc1)c1ccccc1 result="31.4 µM"

# evaluate next
query: GET /values?readout=TGI&system=CAKI-1 renal&item= Cn1cnnc1Sc1c([N+](=O)[O-])ncn1C
result: > 100 µM

---

# TGI per entry
Test system: MDA-MB-435
Experiment: NCI tumour cell line growth inhibition, 48 h

compound=CC1CCN(C(=O)OCc2nc3nc(Cl)nc(N4CCOCC4)c3[nH]2)CC1 result="2.24 µM"

query: Look up TGI for this compound: COC(=O)c1ccc(-c2c(C#N)[n+](=O)c3cc(Cl)c(Cl)cc3n2[O-])cc1
result: 37 µM

query: Same question for CC(C(=O)O)c1cccc(Oc2ccccc2)c1 (stereo not drawn) please.
result: > 100 µM

query: Now this one: CN1CC[C@@H](c2c(O)cc(O)c3c(=O)cc(-c4ccc(C(F)(F)F)cc4Cl)oc23)[C@@H]1CO
result: 23 µM

query: Same for CC(=O)OCC1OC(OC2CC3C(C)(C)C(O)CC[C@]3(C)C3CCC45CC4(CCC5[C@@H](C)CC(O)C(O)C(C)(C)O)[C@]23C)C(O)C(O)C1O (stereo partly drawn)
result: > 10 µM

query: Can you handle [N-]=[N+]=CC(=O)OC1Cc2ccccc2C1 next?
result: > 100 µM

query: Repeat for the following compound: Cc1cc2cc3c(=O)[nH]c(=O)[nH]c3nc2cc1C
result: > 100 µM

query: Now give it for O=C1NC(N/N=C\C(O)C(O)C(O)C(O)CO)=N/C1=C/c1ccc(Cl)cc1 (stereo not drawn) too.
result: > 100 µM

query: Now try Oc1ccc(Nc2c3ccccc3nc3occ(Cl)c23)cc1 .
result: 6.51 µM
